system: DU 145, hormone-independent human prostate cancer cells; experiment: Proliferation assay, DU145; format: cell-based; conditions: DU-145, 96 h, 4 days incubation, crystal violet
measurement-type: log10 of IC50 (log10 of the value in nM)
Annotation: log10 of IC50, nM basis.

CCOC(=O)N=S(=O)(CC)c1ccc(Nc2ncc(Br)c(N[C@H](C)[C@@H](C)O)n2)cc1 (mixture of isomers) = 2.23
CCOC(=O)N=S(=O)(CC)c1ccc(Nc2ncc(Br)c(N[C@H](C)C(C)(C)O)n2)cc1 (mixture of isomers) = 2.08

The recorded log10 of IC50 for entry CC(O)C(C)Sc1nc(Nc2ccc(S(C)(=N)=O)cc2)ncc1Br (racemic) equals 1.78

The recorded log10 of IC50 for entry C[C@@H](Nc1nc(Nc2ccc(S(=N)(=O)CC3CC3)cc2)ncc1Br)C(C)(C)O (mixture of isomers) equals 2.00

The recorded log10 of IC50 for entry CC(C)Nc1nc(Nc2ccc(S(C)(=N)=O)cc2)ncc1Br (racemic) equals 3.23

The recorded log10 of IC50 for entry CCOC(=O)N=S(C)(=O)c1ccc(Nc2ncc(Br)c(N[C@H](C)C(C)(C)O)n2)cc1 (mixture of isomers) equals 2.48

Reference source: patent US7338958B2
